Target: calmodulin (Homo sapiens)
Test: calcium-dependent phosphodiesterase assay (calmodulin activity)
Format: biochemical
Conditions: comparison of IC50 for phosphodiesterase with IC50 for calmodulin
Square brackets hold non-standard residues; d marks the D form. Peptide text beside a SMILES is read from it.
Hi there, I'd appreciate the recorded SPECIFICITY for every entry that follows.
// return a plain number; no unit text

Q: # SPECIFICITY lookup, item CC[C@@H](C)[C@@H](NC(=O)[C@@H](CCCNC(=N)N)NC(=O)[C@@H](Cc1c[nH]c2ccccc12)NC(=O)[C@@H](CC(C)C)NC(C)=O)C(=O)N[C@H](Cc1c[nH]cn1)C(=O)N[C@H](Cc1c[nH]c2ccccc12)C(N)=O (Ac-[dL][dW][dR][dI][dH][dW]-NH2)
Result: 69

Q: Fill in: SPECIFICITY of CC[C@@H](C)[C@@H](NC(=O)[C@@H](Cc1c[nH]c2ccccc12)NC(=O)[C@@H](CC(C)C)NC(C)=O)C(=O)N[C@H](Cc1c[nH]cn1)C(=O)N[C@H](CC(C)C)C(=O)N[C@H](Cc1c[nH]c2ccccc12)C(N)=O (Ac-[dL][dW][dI][dH][dL][dW]-NH2) is ___
Result: 12

Q: For the molecule CC[C@@H](C)[C@@H](NC(=O)[C@@H](Cc1c[nH]c2ccccc12)NC(=O)[C@@H](CC(C)C)NC(C)=O)C(=O)N[C@H](Cc1c[nH]cn1)C(=O)N[C@H](Cc1c[nH]cn1)C(=O)N[C@H](Cc1c[nH]c2ccccc12)C(N)=O (Ac-[dL][dW][dI][dH][dH][dW]-NH2) , what SPECIFICITY is on record?
Result: 2.4

Q: Find the recorded SPECIFICITY belonging to CC[C@@H](C)[C@@H](NC(=O)[C@@H](CCCNC(=N)N)NC(=O)[C@@H](Cc1c[nH]c2ccccc12)NC(=O)[C@@H](CC(C)C)NC(C)=O)C(=O)N[C@H](CC(C)C)C(=O)N[C@H](Cc1c[nH]c2ccccc12)C(N)=O (Ac-[dL][dW][dR][dI][dL][dW]-NH2) and report it.
Result: 17

Q: // lookup SPECIFICITY for CC[C@@H](C)[C@@H](NC(=O)[C@@H](CCC(N)=O)NC(=O)[C@@H](CC(C)C)NC(C)=O)C(=O)N[C@H](Cc1c[nH]cn1)C(=O)N[C@H](CC(C)C)C(=O)N[C@H](CCCNC(=N)N)C(N)=O (Ac-[dL][dQ][dI][dH][dL][dR]-NH2)
Result: 2.4

Q: Suppose we examine the molecule CC(=O)N[C@H](CC(C)C)C(=O)N[C@H](Cc1c[nH]c2ccccc12)C(=O)N[C@H](CCCNC(=N)N)C(=O)N[C@H](Cc1c[nH]cn1)C(=O)N[C@H](Cc1c[nH]cn1)C(=O)N[C@H](Cc1c[nH]c2ccccc12)C(N)=O (Ac-[dL][dW][dR][dH][dH][dW]-NH2) ; what SPECIFICITY value has been reported?
Result: 100

Q: What does the record list as SPECIFICITY for CC[C@@H](C)[C@@H](NC(=O)[C@@H](CCC(N)=O)NC(=O)[C@@H](CC(C)C)NC(C)=O)C(=O)N[C@@H](C(=O)N[C@H](CC(C)C)C(=O)N[C@H](Cc1c[nH]c2ccccc12)C(N)=O)[C@H](C)CC (Ac-[dL][dQ][dI][dI][dL][dW]-NH2) ?
Result: 4.8

Q: SPECIFICITY for CC(=O)N[C@H](CC(C)C)C(=O)N[C@H](Cc1c[nH]c2ccccc12)C(=O)N[C@H](CCCNC(=N)N)C(=O)N[C@H](Cc1c[nH]cn1)C(=O)N[C@H](CC(C)C)C(=O)N[C@H](Cc1c[nH]c2ccccc12)C(N)=O (Ac-[dL][dW][dR][dH][dL][dW]-NH2) ?
Result: 10
